Tested on: Acinetobacter
Protocol description: Antimicrobial activity against imipenem non-susceptible Acinetobacter assessed as susceptible isolate by broth microdilution method
Format: functional
Quantity measured: Activity (%)
Hi! Could you send only the number? It should be in %, unit omitted.

In the examples that follow, each entry is paired with its recorded Activity.
{"Compound": "C[C@@H](O)[C@H]1C(=O)N2C(C(=O)O)=C(S[C@@H]3CN[C@H](C(=O)N(C)C)C3)[C@H](C)[C@H]12", "Activity (%)": 0}
{"Compound": "C[C@@H](O)[C@H]1C(=O)N2C(C(=O)O)=C(S[C@@H]3CN[C@H](CNS(N)(=O)=O)C3)[C@H](C)[C@H]12", "Activity (%)": 0}
{"Compound": "C[C@@H](O)[C@H]1C(=O)N2C(C(=O)O)=C(SCCNC=N)C[C@H]12 [IMIPENEM ANHYDROUS]", "Activity (%)": 0}
{"Compound": "CC(C)(O/N=C(\\C(=O)N[C@@H]1C(=O)N2C(C(=O)[O-])=C(C[n+]3ccccc3)CS[C@H]12)c1csc(N)n1)C(=O)O", "Activity (%)": 15.7}

Now look at this entry.
Query: Give the measured Activity of CO/N=C(\C(=O)N[C@@H]1C(=O)N2C(C(=O)[O-])=C(C[N+]3(C)CCCC3)CS[C@H]12)c1csc(N)n1 .
Reply: 2
